- tgt: T1, human CD19 on CHO-K1-human CD19 cells (human, UniProt P15391 20-556)
- T1 construct: whole, on cells; also called CHO-K1-human CD19-2C8
- T1 sequence (looked up): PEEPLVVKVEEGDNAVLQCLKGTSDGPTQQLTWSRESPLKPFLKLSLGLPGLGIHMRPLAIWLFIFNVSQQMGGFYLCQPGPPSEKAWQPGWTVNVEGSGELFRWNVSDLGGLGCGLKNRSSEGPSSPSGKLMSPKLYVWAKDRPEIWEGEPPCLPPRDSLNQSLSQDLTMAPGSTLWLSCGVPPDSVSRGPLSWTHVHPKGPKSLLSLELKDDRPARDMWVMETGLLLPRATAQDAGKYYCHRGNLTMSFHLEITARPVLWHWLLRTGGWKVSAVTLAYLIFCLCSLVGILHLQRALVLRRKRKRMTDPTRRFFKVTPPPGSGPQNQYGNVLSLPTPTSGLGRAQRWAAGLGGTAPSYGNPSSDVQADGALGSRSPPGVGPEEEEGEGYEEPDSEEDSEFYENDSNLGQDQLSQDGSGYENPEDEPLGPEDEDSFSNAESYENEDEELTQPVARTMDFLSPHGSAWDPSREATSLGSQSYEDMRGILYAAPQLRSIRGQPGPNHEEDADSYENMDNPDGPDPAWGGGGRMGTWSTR
- experiment-summary: FACS on CHO-K1-human CD19 cells
quantity-measured: Maximum mean fluorescence intensity

| binder | Maximum mean fluorescence intensity |
| --- | --- |
| F4.152.7 (antibody, human IgG1, V domains shown, human-murine chimeric antibody, human IgG1) VH: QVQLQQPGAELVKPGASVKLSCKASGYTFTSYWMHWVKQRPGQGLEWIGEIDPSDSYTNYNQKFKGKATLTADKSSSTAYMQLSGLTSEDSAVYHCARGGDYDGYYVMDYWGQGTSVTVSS VL: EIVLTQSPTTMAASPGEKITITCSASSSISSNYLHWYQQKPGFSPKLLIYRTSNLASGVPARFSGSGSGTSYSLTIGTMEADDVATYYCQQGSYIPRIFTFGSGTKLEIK | 58900 |
| F3.124.7 (antibody, human IgG1, V domains shown, human-murine chimeric antibody, human IgG1) VH: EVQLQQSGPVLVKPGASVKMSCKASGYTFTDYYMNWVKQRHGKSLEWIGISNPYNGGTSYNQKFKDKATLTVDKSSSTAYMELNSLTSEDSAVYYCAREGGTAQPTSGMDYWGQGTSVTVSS VL: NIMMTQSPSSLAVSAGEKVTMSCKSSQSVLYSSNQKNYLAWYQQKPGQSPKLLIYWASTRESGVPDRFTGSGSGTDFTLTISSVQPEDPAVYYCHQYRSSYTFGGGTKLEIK | 47500 |

Query :: # Maximum mean fluorescence intensity lookup, item F3.126.15 (antibody, human IgG1, V domains shown, human-murine chimeric antibody, human IgG1) VH: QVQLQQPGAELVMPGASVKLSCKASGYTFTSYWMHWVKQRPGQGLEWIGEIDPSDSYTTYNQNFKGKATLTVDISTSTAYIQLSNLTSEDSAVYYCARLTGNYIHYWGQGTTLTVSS VL: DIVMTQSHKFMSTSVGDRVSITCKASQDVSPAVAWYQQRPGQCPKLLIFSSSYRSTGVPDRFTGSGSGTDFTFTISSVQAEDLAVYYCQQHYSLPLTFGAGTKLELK
Result :: 56700
